experiment: AUC (0 to t) in CES1-deficient C57BL/6 mouse plasma implanted with mouse EL4 cells at 3.2 mg/kg, sc administered as single dose by LC-MS/MS analysis; type: ADME, organism-based
readoutName: AUC(0-t) (µM·h)

{"cpdSmiles": "CC(=O)NCCCC[C@H](NC(=O)C12CC3CC(CC(C3)C1)C2)C(=O)N[C@@H](CCC(=O)C=[N+]=[N-])C(=O)OC(C)C", "measuredNumber": 0.4}

###

assay: Prodrug conversion in human plasma suspended with human H69 cells assessed as 6-diazo-5-oxo-L-norleucine formation at 20 uM measured after 1 hr by LC-MS/MS analysis; type: ADME, cell-free

{"cpdSmiles": "CC(=O)NCCCC[C@H](NC(=O)C12CC3CC(CC(C3)C1)C2)C(=O)N[C@@H](CCC(=O)C=[N+]=[N-])C(=O)OC(C)C", "Drug metabolism": "0.25 to 0.5 µM"}
